# assayed_system: T1, His-tagged P3028 (human, also: His-tag, terminus and sequence not given here)
# T1 construct: in solution at 0.5 ug/mL over the peptide cards; found with anti-His-tag antibody and rabbit anti-mouse peroxidase (rampo); also called PGE73; not shown: His-tag
# T1 peptide: VFDEFKPLVEEPQNLIK
# assay_remarks: PEPSCAN chip ELISA, His-P3028 in solution;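 note: score is the raw OD at 405 nm from peroxidase colour with ABTS, imaged by CCD camera before and after staining, with wells showing air bubbles set to zero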
No end group written: not given here.
Measured RAMPO Score values are reported for all entries that follow.

{"columns": ["binder", "RAMPO Score / rampo score"],
 "data": [
  ["PKLDTFFVKLSLFTER [SEQ ID NO 277]", 387],
  ["KKLDTHFVKLSLFTER [SEQ ID NO 466]", 332],
  ["KKLDTFFVKLSLFFER [SEQ ID NO 376]", 348],
  ["KKLDFFFVKLSLFTER [SEQ ID NO 504]", 290],
  ["KKHDTFFVKLSLFTER [SEQ ID NO 288]", 477],
  ["KKLDTIFVKLSLFTER [SEQ ID NO 314]", 466],
  ["KKLDTFFVKLSLFGER [SEQ ID NO 377]", 343],
  ["KKLDTFFVKLSLFTYR [SEQ ID NO 459]", 340],
  ["KKLDTFFVSLSLFTER [SEQ ID NO 511]", 274],
  ["KKLDTFFVKLSPFTER [SEQ ID NO 497]", 297],
  ["KKLDTFFVKLSLFTEK [SEQ ID NO 389]", 291],
  ["KKLDTFFVKLSLSTER [SEQ ID NO 27]", 635],
  ["GKLDTFFVKLSLFTER [SEQ ID NO 93]", 367],
  ["KKLDTFFQKLSLFTER [SEQ ID NO 513]", 271],
  ["KKLDTFFVKLNLFTER [SEQ ID NO 347]", 451],
  ["KSLDTFFVKLSLFTER [SEQ ID NO 510]", 281],
  ["KKLDTGFVKLSLFTER [SEQ ID NO 446]", 347],
  ["AKLDTFFVKLSLFTER [SEQ ID NO 268]", 466],
  ["KKLDTFFVKLSLHTER [SEQ ID NO 24]", 1050],
  ["KKLDTFFVKLSLHTER [SEQ ID NO 364]", 1050],
  ["KKLDTFFVKLSIFTER [SEQ ID NO 352]", 456],
  ["KKLDTFFVKLQLFTER [SEQ ID NO 348]", 768],
  ["KKLDTFFFKLSLFTER [SEQ ID NO 326]", 358],
  ["KKLDTFFVKSSLFTER [SEQ ID NO 341]", 351],
  ["KKLDTFFVKLSLFTDR [SEQ ID NO 387]", 404],
  ["KKLDTFMVKLSLFTER [SEQ ID NO 321]", 712],
  ["KKLDTFFVKLSLFKER [SEQ ID NO 517]", 259],
  ["KKLDTFFVKLSLFTEH [SEQ ID NO 528]", 239],
  ["KKLDTFFVKLYLFTER [SEQ ID NO 415]", 402],
  ["KMLDTFFVKLSLFTER [SEQ ID NO 417]", 400]
]}
